Provide the recorded EC50 CreLuc hGLP1R 0.5% hP for the entries that follow.
- Study system: human GLP-1 receptor (human, UniProt P43220 24-463)
- Protocol description: cell-based or functional assay
Starred links: 1 amine or outer side, 2 acyl side, 3 side chain; linkers in the order of their positions; H or OH if unused. Non-standard residues stand in square brackets, D forms with d. Groups on a side chain read outwards from the residue. No end group written: not given here. *: point of attachment. C20 diacid = O=C(O)CCCCCCCCCCCCCCCCCCC(=O)*; C18 diacid = O=C(O)CCCCCCCCCCCCCCCCC(=O)*; γGlu = O=C(O)[C@H](CCC(=O)[*:2])N[*:1]; εLys = N[C@@H](CCCCN[*:1])C(=O)[*:2]; AEEA = NCCOCCOCC(=O)O; Aib = CC(C)(N)C(=O)O; Ahx = NCCCCCC(=O)O
Give bare numbers, in pM.

These solved cases illustrate the format of a correct answer.
- Binder: "YXEGTFTSDYSIXLEKQAQXAFVEWLIKGGPSEGQSIRHYYNWLTRQRY (Aib at 2, 13, 20; K28 side chain: C20DA-gGlu-gGlu-gGlu-gGlu-gGlu-gGlu-eLys; C-terminal NH2) [Compound 134]"
  EC50 CreLuc hGLP1R 0.5% hP [pM]: 100
- Binder: "Y[Aib]EGTFTSDYSI[Aib]LEEQAQ[Aib]AFVEWLIK([εLys-AEEA-γGlu-γGlu-γGlu-γGlu-γGlu-C20 diacid])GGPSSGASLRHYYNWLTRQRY-NH2 [Compound 110]"
  EC50 CreLuc hGLP1R 0.5% hP [pM]: 150

For every item below, please supply its EC50 CreLuc hGLP1R 0.5% hP.
1. YXEGTFTSDYSIXLEGQAQXAFVEWLIKGGPSSGASLRHYYNWLTRQRY (Aib at 2, 13, 20; K28 side chain: C20DA-gGlu-gGlu-gGlu-gGlu-gGlu-gGlu-eLys; C-terminal NH2) [Compound 99]
2. YXEGTFTSDYSIXLEKQAQXAFIEWLIKGGPSSGASLRHYYNWLTRQRY (Aib at 2, 13, 20; K28 side chain: C20DA-gGlu-gGlu-gGlu-Glu-gGlu-gGlu-eLys; C-terminal NH2) [Compound 130]
3. Y[Aib]EGTFTSDYSI[Aib]LEKQAQ[Aib]AFVQWLIK([Ahx-γGlu-γGlu-γGlu-γGlu-γGlu-γGlu-C18 diacid])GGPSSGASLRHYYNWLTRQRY-NH2 [Compound 139]

OUTPUT:
1. 410
2. 130
3. 70

Provide EC50 CreLuc hGLP1R 0.5% hP for all items below, preserving their order.
1. YXEGTFTSDYSIXLEKQAQXAFVQWLIKGGPSSGASLRHYYNWLTRQRY (Aib at 2, 13, 20; K28 side chain: C20DA-gGlu-gGlu-gGlu-gGlu-gGlu-OEG-OEG; C-terminal NH2) [Compound 112]
2. Y[Aib]EGTFTSDYSI[Aib]LEKQAQ[Aib]AFVQWLIK([εLys-Glu-Glu-Glu-Glu-Glu-C18 diacid])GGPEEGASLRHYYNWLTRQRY-NH2 [Compound 155]

OUTPUT:
1: 60; 2: 150

I have 8 binders here; please give me EC50 CreLuc hGLP1R 0.5% hP for each one.
1. YXEGTFTSDYSIXLDKQAQXAFVEWLIKGGPSSGASLRHYYNWLTRQRY (Aib at 2, 13, 20; K28 side chain: C20DA-gGlu-gGlu-gGlu-gGlu-gGlu-gGlu-eLys; C-terminal NH2) [Compound 128]
2. Y[Aib]EGTFTSDYSI[Aib]LEKQAE[Aib]AFVQWLIK([εLys-γGlu-γGlu-γGlu-γGlu-γGlu-C18 diacid])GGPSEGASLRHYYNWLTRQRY-NH2 [Compound 138]
3. Y[Aib]EGTFTSDYSI[Aib]LEKQAQ[Aib]AFVQWLIK([εLys-γGlu-γGlu-γGlu-Glu-γGlu-γGlu-γGlu-C20 diacid])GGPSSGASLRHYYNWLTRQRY-NH2 [Compound 92]
4. Y[Aib]EGTFTSDYSI[Aib]LEKQAQ[Aib]AFVEWLIK([AEEA-AEEA-γGlu-γGlu-γGlu-γGlu-C18 diacid])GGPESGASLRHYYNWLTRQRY-NH2 [Compound 163]
5. Y[Aib]EGTFTSDYSI[Aib]LEKQAQ[Aib]AFVEWLIK([AEEA-AEEA-γGlu-γGlu-γGlu-C18 diacid])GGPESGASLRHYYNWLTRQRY-NH2 [Compound 166]
6. Y[Aib]EGTFTSDYSI[Aib]LEKQAQ[Aib]AFVQWLIK([εLys-γGlu-γGlu-γGlu-γGlu-γGlu-C20 diacid])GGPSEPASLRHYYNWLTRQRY-NH2 [Compound 169]
7. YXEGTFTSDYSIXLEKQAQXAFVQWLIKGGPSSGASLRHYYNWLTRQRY (Aib at 2, 13, 20; K28 side chain: C18DA-gGlu-gGlu-gGlu-gGlu-gGlu-gGlu-eLys; C-terminal NH2) [Compound 170]
8. Y[Aib]EGTFTSDYSI[Aib]LEKQAE[Aib]AFVEWLIK([AEEA-AEEA-γGlu-γGlu-γGlu-γGlu-C18 diacid])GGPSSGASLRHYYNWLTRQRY-NH2 [Compound 150]

OUTPUT:
400
190
80
100
70
130
90
310

Dear colleague, could you please provide EC50 CreLuc hGLP1R 0.5% hP for the binders listed below?
1. YXEGTFTSDYSIXLEKQAQXAFVQWLIKGGPSEPASLRHYYNWLTRQRY (Aib at 2, 13, 20; K28 side chain: C20DA-gGlu-gGlu-gGlu-gGlu-gGlu-OEG-OEG; C-terminal NH2) [Compound 111]
2. YXEGTFTSDYSIXLEKAAQXAFVEWLIKGGPSSGASLRHYYNWLTRQRY (Aib at 2, 13, 20; K28 side chain: C20DA-gGlu-gGlu-gGlu-gGlu-gGlu-gGlu-eLys; C-terminal NH2) [Compound 136]
3. Y[Aib]EGTFTSDYSI[Aib]LEKQAQ[Aib]AFVQWLIK([εLys-γGlu-γGlu-γGlu-γGlu-γGlu-C18 diacid])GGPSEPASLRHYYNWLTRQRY-NH2 [Compound 148]
4. YXEGTFTSDYSIXLEKQAQXAFVEWLIKGGPSSPASLRHYYNWLTRQRY (Aib at 2, 13, 20; K28 side chain: C20DA-gGlu-gGlu-gGlu-gGlu-gGlu-OEG-OEG; C-terminal NH2) [Compound 120]

OUTPUT:
[120, 320, 80, 110]

Entry source: patent US20240247080A1
